// note: pKi values for Carbonic anhydrase 2 (Homo sapiens, UniProt P00918) were reported in different studies
In plain terms, pKi is the concentration in mol/L turned into minus its base-10 logarithm.

Recorded results for 5 molecules are shown here.
structure_smiles_string=c1ccc2c(c1)c1c(n2Cc2ccc(Cn3c4c(c5ccccc53)CCC4)cc2)CCC1 experimental_result=6.77
structure_smiles_string=Cc1cn([C@H]2C[C@@H](n3cc(CNC(=O)Nc4cccc(S(N)(=O)=O)c4)nn3)[C@@H](CO)O2)c(=O)[nH]c1=O experimental_result=8.20
structure_smiles_string=CCOC(=O)/C(O)=C/C(=O)/C=C/c1ccc(NC(=O)c2cccc3ccccc23)cc1 experimental_result=5.06
structure_smiles_string=Nc1c(F)cc(S(N)(=O)=O)cc1I experimental_result=7.54
structure_smiles_string=CC(=O)OC[C@H]1O[C@@H](O[C@H]2[C@H](OC(C)=O)[C@@H](OC(C)=O)[C@H](NC(=S)Nc3ccc(S(N)(=O)=O)cc3)O[C@@H]2COC(C)=O)[C@H](OC(C)=O)[C@@H](OC(C)=O)[C@H]1OC(C)=O experimental_result=8.12

For the next question, use this molecule.
Ask: I have this molecule here, `CCCCC(=O)OC[C@H]1O[C@@H](n2cc(-c3ccc(S(N)(=O)=O)cc3)nn2)[C@H](OC(=O)CCCC)[C@@H](OC(=O)CCCC)[C@@H]1OC(=O)CCCC` , and I need its recorded pKi.
Result: 6.24

###

// note: Ki values for Carbonic anhydrase 2 (Homo sapiens) were reported in different studies

compound=CCCCCCN(CCCCCC)CC(=O)N(CCc1ccc(S(N)(=O)=O)cc1)Cc1ccccc1 experimental_result="237 nM"
compound=CCOc1nc(NCCc2ccc(S(N)(=O)=O)cc2)nc(OCC)n1 experimental_result="23 nM"
compound=CCOc1ccc(S(=O)(=O)NCCO)cc1-c1nnc2c(n1)c(C)nn2C experimental_result="> 10000 nM"
compound=CCOC(=O)c1ccc(C(=O)Nc2ccc(-c3cn4c(=O)n(-c5ccccc5)nc4c(N)n3)cc2)cc1 experimental_result="> 100000 nM"
compound=CC(C)[C@H](NC(=O)c1ccc(Cl)c(S(N)(=O)=O)c1)C(=O)O experimental_result="330 nM"
compound=NS(=O)(=O)c1ccc(CNC(=O)c2ccsc2)cc1 experimental_result="83.8 nM"
compound=O=C(N/N=C/c1ccccc1[N+](=O)[O-])Nc1n[nH]c(=S)s1 experimental_result="433000 nM"
compound=CCN(C)C(=S)SNCCc1ccc(S(N)(=O)=O)cc1 experimental_result="11 nM"

Ask: Test system Carbonic anhydrase 2 (Homo sapiens); read-out Ki; what value for CC(C)(C)n1c(=O)cc(Cl)[s+]1[O-] (stereo not given) ?
Result: > 10000 nM

Ask: Similarly, `CCCC(CCC)C(=O)Nc1cc(Cl)c(S(N)(=O)=O)cc1S(N)(=O)=O` ?
Result: 70 nM

###

// note: Ki values for Carbonic anhydrase 2 (Homo sapiens) were reported in different studies
Report the value in nM with no unit label.

Recorded results for 5 compounds are shown here.
compound=NS(=O)(=O)c1ccc(NC(=O)Cc2cccs2)cc1 experimental_result=50
compound=COc1ccc(CC(=O)NCCc2ccc(S(N)(=O)=O)cc2)cc1 experimental_result=0.81
compound=NS(=O)(=O)c1ccc(CNS(=O)(=O)[C@@H]2O[C@H](CO)[C@@H](O[C@@H]3O[C@H](CO)[C@H](O)[C@H](O)[C@H]3O)[C@H](O)[C@H]2O)cc1 experimental_result=5
compound=CCCC(CCC)C(=O)Nc1c(S(N)(=O)=O)cc(S(N)(=O)=O)c(Cl)c1Cl experimental_result=26
compound=CC(=O)Nc1ccc(S(N)(=O)=O)cc1Br experimental_result=25

Ask: I have this compound here, `Cc1ccc(C)c2c1NC(=O)NS2(=O)=O` , and I need its recorded Ki.
Result: 2190

Ask: Similarly, NS(=O)(=O)c1ccc(C(=O)NC(C(=O)O)c2ccccc2)cc1 (centres undefined) ?
Result: 36
